Molecular target: UniProtKB P18031
Sequence (P18031 whole entry): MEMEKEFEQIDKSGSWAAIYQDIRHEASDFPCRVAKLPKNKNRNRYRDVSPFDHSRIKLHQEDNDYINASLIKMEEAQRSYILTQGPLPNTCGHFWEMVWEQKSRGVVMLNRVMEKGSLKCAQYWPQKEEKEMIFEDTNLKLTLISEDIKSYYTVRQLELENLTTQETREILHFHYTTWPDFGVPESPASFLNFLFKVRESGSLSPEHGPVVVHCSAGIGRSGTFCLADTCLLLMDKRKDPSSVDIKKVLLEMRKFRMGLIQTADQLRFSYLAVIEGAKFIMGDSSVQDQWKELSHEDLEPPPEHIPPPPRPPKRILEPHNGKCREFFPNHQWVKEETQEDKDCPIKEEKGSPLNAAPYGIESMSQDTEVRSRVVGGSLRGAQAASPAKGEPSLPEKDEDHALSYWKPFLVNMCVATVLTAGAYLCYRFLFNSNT
measured.property: pIC50
Conceptually, pIC50 converts a concentration in mol/L into minus its log10.

For the molecule `O=C(O)c1ccc(COc2ccc(/C=C3\S/C(=N\c4ccccc4)N(Cc4ccc(C(=O)O)cc4)C3=O)cc2)cc1` , what pIC50 is on record?
6.26

---

Catalogue of compounds with associated inhibition
Biological target: Low molecular weight phosphotyrosine protein phosphatase (Bos taurus)
Assay: Inhibition of bovine kidney LMW-PTPase at 400 uM using pNPP substrate
Kindly answer with a numeric value in %, unit omitted.

O=c1c(O)c(-c2ccc(O)cc2O)oc2cc(O)cc(O)c12    35

Given `O=C(CCc1ccc(O)cc1)c1c(O)cc(O)cc1O` , state its recorded inhibition.
14

Entry Oc1cc(O)c2c(c1)OC(c1ccc(O)c(O)c1)C(O)C2 (stereo not given) : reported inhibition = ?
14

Look up inhibition for this compound: `C[C@@H]1O[C@@H](OC[C@H]2O[C@@H](Oc3c(-c4ccc(O)c(O)c4)oc4cc(O)cc(O)c4c3=O)[C@H](O)[C@@H](O)[C@@H]2O)[C@H](O)[C@H](O)[C@H]1O`
14

// lookup inhibition for `O=c1c(O)c(-c2cc(O)c(O)c(O)c2)oc2cc(O)cc(O)c12`
14
